# targetEntity: CYP17 (human testicular microsome) (Homo sapiens, UniProt P05093)
# Construct: using microsomal fraction from human testis (Celsis Cat #S00110) as the enzyme source; tissue Celsis S00110; host or cells: human testis microsomal fraction
# Sequence (P05093 whole entry): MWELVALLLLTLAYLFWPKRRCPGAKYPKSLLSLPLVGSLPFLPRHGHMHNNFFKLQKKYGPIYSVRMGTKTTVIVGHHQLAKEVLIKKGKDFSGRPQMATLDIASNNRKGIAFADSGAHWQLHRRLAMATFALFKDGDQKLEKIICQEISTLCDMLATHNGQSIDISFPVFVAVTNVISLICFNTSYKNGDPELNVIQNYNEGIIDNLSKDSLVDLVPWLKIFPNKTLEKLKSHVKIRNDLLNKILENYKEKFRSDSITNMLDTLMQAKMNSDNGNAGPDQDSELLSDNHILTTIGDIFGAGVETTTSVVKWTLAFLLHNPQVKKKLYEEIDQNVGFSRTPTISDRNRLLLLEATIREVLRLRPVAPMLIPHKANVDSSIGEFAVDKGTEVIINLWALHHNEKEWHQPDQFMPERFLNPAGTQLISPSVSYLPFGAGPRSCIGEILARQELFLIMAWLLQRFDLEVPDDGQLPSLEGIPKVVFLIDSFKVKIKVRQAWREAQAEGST
# experimentalProtocol: CYP17 enzymatic assay (% inhibition at 1 nM) (Biological Example 12)
# Assay type: biochemical
# assayConditions: compound at 1 nM, read-out: Biological Example No. 12: CYP17 enzymatic assay % inhibition at 1 nM
Entries annotated with measured inhibition at 0.001 µM

Completed entries (count: 3):
>  <compound>
C[C@]12CC[C@H]3[C@@H](CC(F)C4(O)CC(=O)CC[C@]34C)[C@@H]1CC=C2c1cncc(F)c1 (stereo partly drawn)

>  <targetEntity>
CYP17 (human testicular microsome) (Homo sapiens, UniProt P05093)

>  <measurementLabel>
inhibition at 0.001 µM

>  <endpointValue>
> 50%

$$$$
>  <compound>
C[C@]12CC(O)CC1CCC1C2CC[C@]2(C)C(c3cncc(F)c3)=CCC12 (stereo partly drawn)

>  <targetEntity>
CYP17 (human testicular microsome) (Homo sapiens, UniProt P05093)

>  <measurementLabel>
inhibition at 0.001 µM

>  <endpointValue>
10 to 50%

$$$$
>  <compound>
C[C@]12CC[C@H]3[C@@H](CC(F)C4(O)CC(=O)CC[C@]34C)[C@@H]1CC=C2c1cccnc1 (stereo partly drawn) [Compound 310e]

>  <targetEntity>
CYP17 (human testicular microsome) (Homo sapiens, UniProt P05093)

>  <measurementLabel>
inhibition at 0.001 µM

>  <endpointValue>
> 50%

$$$$

Next:
Query: Look up inhibition at 0.001 µM for this compound: CC(CO)(CO)C(=O)O[C@H]1CC[C@@]2(C)C(=CC[C@H]3C4=CC=C(c5cccnc5)[C@@]4(C)CC[C@@H]32)C1
Response: < 10%

###

# experimentalProtocol: Rat liver microsome stability assay (Biological Example 8a)
# assayConditions: liver microsomes, pH 7.4
Entries annotated with measured half-life at 1 μM

>  <molecule>
C[C@]12CC(=O)C[C@@H]1CC[C@@H]1[C@@H]2CC[C@]2(C)C(n3ccnc3)=CC[C@@H]12 [Compound 108]

>  <half-life at 1 μM>
1 to 10 min

$$$$
>  <molecule>
C[C@]12CC[C@H]3[C@@H](CCC4=CC(=O)CC[C@@]43C)C1=CC=C2n1ccnc1 [Compound 75]

>  <half-life at 1 μM>
10 to 60 min

$$$$
>  <molecule>
C[C@]12CCNC(=O)C=C1CC[C@@H]1[C@@H]2CC[C@]2(C)C(n3ncnn3)=CC[C@@H]12 [Compound 63]

>  <half-life at 1 μM>
1 to 10 min

$$$$

Query: Look up half-life at 1 μM for this molecule: Cc1cncc(C2=CC[C@H]3[C@@H]4CC(O)C5CCCC[C@]5(C)[C@H]4CC[C@]23C)c1 (stereo partly drawn) [Compound 70]
Response: 1 to 10 min

Query: Look up half-life at 1 μM for this molecule: CCc1cncc(C2=CC[C@H]3[C@@H]4CCN5C(=O)CCCC[C@]5(C)[C@H]4CC[C@]23C)c1 [Compound 41]
Response: 1 to 10 min

Query: Look up half-life at 1 μM for this molecule: C[C@]12CCC3C(CCN4C(=O)CC=CC[C@]34C)C1CC=C2c1cccnc1 (stereo partly drawn) [Compound 34]
Response: 1 to 10 min

Query: Look up half-life at 1 μM for this molecule: C[C@]12CCCCC[C@@H]1CC[C@@H]1[C@@H]2CC[C@]2(C)C(n3ccnc3)=CC[C@@H]12 [Compound 97]
Response: 10 to 60 min

Query: Look up half-life at 1 μM for this molecule: C[C@]12CCNC(=O)C[C@@H]1CC[C@@H]1[C@@H]2CC[C@]2(C)C(n3ccnn3)=CC[C@@H]12 [Compound 137]
Response: 10 to 60 min

Query: Look up half-life at 1 μM for this molecule: C[C@]12CCOCC[C@@H]1CC[C@@H]1[C@@H]2CC[C@]2(C)C(c3cccnc3)=CC[C@@H]12 [Compound 120]
Response: 1 to 10 min
